# Target Desc: T1, human 4-1BB, full length, on transfected cells (human, UniProt Q07011 24-255)
# T1 construct: whole, on cells; also called CHOK1-h4-1BB
# T1 sequence (Q07011 24-255): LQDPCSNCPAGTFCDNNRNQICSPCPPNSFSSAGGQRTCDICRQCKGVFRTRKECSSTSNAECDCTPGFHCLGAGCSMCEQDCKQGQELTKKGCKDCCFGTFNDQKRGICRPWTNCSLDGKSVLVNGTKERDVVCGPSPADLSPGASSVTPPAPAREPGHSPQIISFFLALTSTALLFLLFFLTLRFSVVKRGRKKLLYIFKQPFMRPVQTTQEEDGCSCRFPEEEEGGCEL
# Measurement Notes: FACS, CHOK1-h4-1BB cells; Ab 0.00013 ug/ml
Readout Type: average fluorescence intensity (MFI)
Use MFI as the unit, but write only the number.

Query string: Field request: average fluorescence intensity | item: 52F4G2 (antibody, V domains shown) VH: QVQLQESGPGLVKPSETLSLTCAVSGYSISSGYYWGWIRQPPGKGLEWIGSIFHSGSSYYNPSLKSRVTISVDTSKNQFSLKLRSVTAADTAVYYCARESSGWNCFDYWGQGTLVTVSS VL: DIQMTQSPSTLSASVGDRVTITCRASQTISTWLAWYQQKPGKAPKLLIYKASNLESGVPSRFSGSGSGTEFTLTISSLQPDDFATYYCQQYNSYSITFGQGTRLEIK
Result string: 4.8

Recorded values, source patent US20200347144A1.
